Entries and their measured concentration at 3 days follow.
Assay: Compound analysis: liver, adipose and plasma concentrations 3 days after a single oral dose
Type: in vivo, female C57BL/6 mice
Details: female, C57BL/6, mouse, in vivo, po, 2.5 µg/kg bw, oral dose 2.5 µg/kg bw; 3 days after single oral dose; read-out: Adipose concentration
Please give a number only; it is taken to be in ng/g.

compound: Clc1cc2c(cc1Cl)Oc1c(cc(Cl)c(Cl)c1Cl)O2 [PeCDD, 1,2,3,7,8-pentachlorodibenzodioxin]
concentration at 3 days [ng/g]: 3.8

Q. Indicate its recorded concentration at 3 days; the compound in question is Clc1cc2c(cc1Cl)Oc1cc(Cl)c(Cl)cc1O2 [TCDD, 2,3,7,8-tetrachlorodibenzodioxin, reference compound]
A. 6.9
